Listed compounds paired with reported relative viability
Tested on: NCI-H2087
Experiment: relative viability (nuclei count vs DMSO), 5 days (fraction); higher = more cells survive
Conditions: first compound 0.1 µM
// return just the number, without any unit appended

Answered examples (4):
Cc1cn(-c2cc(NC(=O)c3ccc(C)c(Nc4nccc(-c5cccnc5)n4)c3)cc(C(F)(F)F)c2)cn1 [Nilotinib] + CS(=O)(=O)CCNCc1ccc(-c2ccc3ncnc(Nc4ccc(OCc5cccc(F)c5)c(Cl)c4)c3c2)o1 [Lapatinib] (partner 2 µM) | 0.289
Cc1cn(-c2cc(NC(=O)c3ccc(C)c(Nc4nccc(-c5cccnc5)n4)c3)cc(C(F)(F)F)c2)cn1 [Nilotinib] + CC(=O)c1c(C)c2cnc(Nc3ccc(N4CCNCC4)cn3)nc2n(C2CCCC2)c1=O [Palbociclib] (partner 0.5 µM) | 0.201
Cc1cn(-c2cc(NC(=O)c3ccc(C)c(Nc4nccc(-c5cccnc5)n4)c3)cc(C(F)(F)F)c2)cn1 [Nilotinib] + Cc1nc(Nc2ncc(C(=O)Nc3c(C)cccc3Cl)s2)cc(N2CCN(CCO)CC2)n1 [Dasatinib] (partner 0.075 µM) | 0.203
Cc1cn(-c2cc(NC(=O)c3ccc(C)c(Nc4nccc(-c5cccnc5)n4)c3)cc(C(F)(F)F)c2)cn1 [Nilotinib] + Nc1ncn([C@H]2C[C@H](O)[C@@H](CO)O2)c(=O)n1 [Decitabine] (partner 2 µM) | 0.131

Moving on to another compound below.
Query: Please indicate relative viability recorded for Cc1cn(-c2cc(NC(=O)c3ccc(C)c(Nc4nccc(-c5cccnc5)n4)c3)cc(C(F)(F)F)c2)cn1 [Nilotinib] + COc1cccc2cc(-c3nc([C@H]4CC[C@H](C(=O)O)CC4)n4ncnc(N)c34)[nH]c12 [OSI-027] (partner 0.5 µM)
Result: 0.239

----------
System: HCC-78
Assay: relative viability (nuclei count vs DMSO), 5 days (fraction); higher = more cells survive
Conditions: first compound 0.2 µM
Listed here are compounds together with their documented relative viability.
Respond using a number only.

Cc1csc(=NC2CCCCC2)n1/N=C/c1ccc(O)c(O)c1O [MIM1] + CC(C)C[C@H](NC(=O)[C@H](Cc1ccccc1)NC(=O)c1cnccn1)B(O)O [Bortezomib] (partner 0.002 µM) | 0.491
Cc1csc(=NC2CCCCC2)n1/N=C/c1ccc(O)c(O)c1O [MIM1] + CS(=O)(=O)N1CCN(Cc2cc3nc(-c4cccc5[nH]ncc45)nc(N4CCOCC4)c3s2)CC1 [Pictilisib] (partner 1 µM) | 0.251

API: the following record is the query input.
Query: Consider the compound CN1CCN(CCOc2cc(OC3CCOCC3)c3c(Nc4c(Cl)ccc5c4OCO5)ncnc3c2)CC1 [Saracatinib] + C[C@]1(O)C[C@@H](c2nc(-c3ccc4ccc(-c5ccccc5)nc4c3)c3c(N)nccn32)C1 [Linsitinib] (partner 1 µM) . State its measured relative viability.
Result: 0.505

----------
Test system: CAL-12T
Experiment: relative viability (nuclei count vs DMSO), 5 days (fraction); higher = more cells survive
Conditions: first compound 0.1 µM
Experimental readout: relative viability

The cases that follow already have their relative viability on record.
Cc1cn(-c2cc(NC(=O)c3ccc(C)c(Nc4nccc(-c5cccnc5)n4)c3)cc(C(F)(F)F)c2)cn1 [Nilotinib] + CC(=O)c1c(C)c2cnc(Nc3ccc(N4CCNCC4)cn3)nc2n(C2CCCC2)c1=O [Palbociclib] (partner 0.5 µM) | 0.299
Cc1cn(-c2cc(NC(=O)c3ccc(C)c(Nc4nccc(-c5cccnc5)n4)c3)cc(C(F)(F)F)c2)cn1 [Nilotinib] + COc1cccc2cc(-c3nc([C@H]4CC[C@H](C(=O)O)CC4)n4ncnc(N)c34)[nH]c12 [OSI-027] (partner 0.5 µM) | 0.527
Cc1cn(-c2cc(NC(=O)c3ccc(C)c(Nc4nccc(-c5cccnc5)n4)c3)cc(C(F)(F)F)c2)cn1 [Nilotinib] + C[C@]1(O)C[C@@H](c2nc(-c3ccc4ccc(-c5ccccc5)nc4c3)c3c(N)nccn32)C1 [Linsitinib] (partner 1 µM) | 0.565

// below: relative viability requested for another compound
Query: Tell me measured relative viability for Cc1cn(-c2cc(NC(=O)c3ccc(C)c(Nc4nccc(-c5cccnc5)n4)c3)cc(C(F)(F)F)c2)cn1 [Nilotinib] + N=C(N)NC(=N)NCCc1ccccc1 [Phenformin] (partner 250 µM) please.
Result: 0.47
